- Study target: T1, recombinant human CD30 extra cellular domain (ECD) protein (human, UniProt P28908 19-379)
- T1 construct: Bought from R&D systems; also called rhCD30; human CD30 ECD
- T1 sequence: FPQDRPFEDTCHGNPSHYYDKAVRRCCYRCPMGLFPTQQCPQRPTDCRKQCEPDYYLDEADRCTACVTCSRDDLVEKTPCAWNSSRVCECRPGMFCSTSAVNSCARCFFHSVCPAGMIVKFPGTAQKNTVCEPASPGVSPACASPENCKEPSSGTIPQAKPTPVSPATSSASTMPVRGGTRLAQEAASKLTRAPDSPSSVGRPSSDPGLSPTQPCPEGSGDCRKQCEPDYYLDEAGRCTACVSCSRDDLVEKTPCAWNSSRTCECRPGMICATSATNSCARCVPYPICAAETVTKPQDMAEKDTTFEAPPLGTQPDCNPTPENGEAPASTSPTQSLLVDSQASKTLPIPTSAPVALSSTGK
- Protocol summary: SPR Biacore T200, His-tagged sdAb/Fab captured, 100.0 nM human CD30 as analyte, single curve
pKd: −log10 of the molar value.
Test readout: pKd

Binder	Test readout	Result value
AS48463 sdAb (VHH, Camel sdAb) VHH: QVHLMESGGGSVQAGETLRLSCTASGFTFANSDMGWYRQAPGNACELVSIISSHGGTTYYVDSVKGRFTISRHNAENTVYLRMTSLKPEDTALYYCVADPRSNCRGGYCCGYWGPGTQVTVSS	pKd	7.52
AS48542 sdAb (VHH, Camel sdAb) VHH: QMQLVESGGGSVQAGETLRLSCTTSAFTFDGPDMAWYRQAPGNECVLVSIISADGRTYYADSVKGRFTISRDNAKNTVFLNLNSLQPEDTAVYYCALDPRKNCRGGYCCANWGPGTQVTVSS	pKd	7.72
AS53445 sdAb (VHH, Camel sdAb) VHH: QVQLVESGGGSVQAGGSLRLSCTASGYIFCMGWFRQAPGKAREGIATIYTGGDSTYYDDSVKGRFTISRDNAKNTVYLQMNSLKPEDTAMYYCAAGGQECYLTNWVSYWGQGTQVTVSS	pKd	7.10
AS54233 sdAb (VHH, Camel sdAb) VHH: QVQLVESGGGSVQAGETLRLSCTASGFTFDGPDMAWYRQAPGNECELVSIISADGRTYYTDSVKGRFTASQDNAKNTVSLYLKSLQPEDTAVYYCAADPRRNCRGNCCGNWGPGTQVTVSS	pKd	7.12
AS57911 human Fab (Fab, V domains shown, Human Fab from a synthetic human Fab library, crude protein from E. coli with 6xHistidine tag) VH: EVQLVESGGGLVQPGGSLRLSCAASGFNISSSYIHWVRQAPGKGLEWVAYISSYYSYTYYADSVKGRFTISADTSKNTAYLQMNSLRAEDTAVYYCARGYPYGMDYWGQGTLVTVSS VL: DIQMTQSPSSLSASVGDRVTITCRASQSVSSAVAWYQQKPGKAPKLLIYSASSLYSGVPSRFSGSRSGTDFTLTISSLQPEDFATYYCQQSHALITFGQGTKVEIK	pKd	6.77

Hey, just so you know, these numbers are from patent US20220144960A1.
